Recorded binding signal by entry
Target: MBP-FoxP1dN (Mus musculus, UniProt P58462 326-579)
Sequence: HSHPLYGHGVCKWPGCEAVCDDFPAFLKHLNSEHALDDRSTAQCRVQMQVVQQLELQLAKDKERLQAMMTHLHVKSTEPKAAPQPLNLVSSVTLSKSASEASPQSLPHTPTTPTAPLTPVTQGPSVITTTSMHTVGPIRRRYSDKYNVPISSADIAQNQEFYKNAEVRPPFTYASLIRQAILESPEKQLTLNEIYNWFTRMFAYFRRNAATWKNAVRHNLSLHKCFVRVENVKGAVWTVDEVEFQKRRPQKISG
Experiment: PD-seq (MBP pull-down with sequencing); 20 mM Tris-HCl pH 7.5, 100 mM NaCl, 1.5 mM MgCl2, 0.4 uM protein, 0.1 uM dsDNA library, 30 min, room temperature, amylose pull-down; high values mean tight binding
Conditions: protein: recombinant; tags: His6-MBP; chain copies: 2; dsDNA, one strand shown
In all, about 16,000 sequences were measured (“rpm ratio (pull-down/input)”: median about 0.94, highest 2% from about 1.7 on). Shown is part of a subset that was picked to be rich in the highest values.
measured property: binding signal

INSERT INTO assay_data (query_sequence, recorded_measurement) VALUES
  ('GATGATTGTTCTCCCAGCTGATGAATTGCATCATTCGAGTAAACAAATTTTCCTAATCTTTCTGTTCAAGCGCCATCTAC', '1.84 RPM ratio (pull-down/input)'),
  ('GATGATTGTTCTCCCAGCTGATGAATTTCAACATTCGAGTAAACAAATTTTCCTAATCTTTCTGTTCAAGCGCCATCTAC', '0.964 RPM ratio (pull-down/input)'),
  ('GATGATTGTTCTCCCAGCTGATGAATTGCGAATATCGAGTAAACAAATTTTCCTAATCTTTCTGTTCAAGCGCCATCTAC', '1.17 RPM ratio (pull-down/input)');

----------
Biological target: MBP-FoxP1dN (Mus musculus, UniProt P58462 326-579)
Sequence: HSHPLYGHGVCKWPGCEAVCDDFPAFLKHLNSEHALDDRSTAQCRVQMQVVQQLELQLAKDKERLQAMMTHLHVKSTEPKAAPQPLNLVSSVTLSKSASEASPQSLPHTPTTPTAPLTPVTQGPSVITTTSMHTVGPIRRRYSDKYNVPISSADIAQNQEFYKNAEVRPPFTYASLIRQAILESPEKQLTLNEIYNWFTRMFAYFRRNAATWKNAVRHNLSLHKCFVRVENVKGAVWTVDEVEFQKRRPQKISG
Experiment: PD-seq (MBP pull-down with sequencing); 20 mM Tris-HCl pH 7.5, 100 mM NaCl, 1.5 mM MgCl2, 0.4 uM protein, 0.1 uM dsDNA library, 30 min, room temperature, amylose pull-down; high values mean tight binding
Conditions: protein: recombinant; tags: His6-MBP; chain copies: 2; dsDNA, one strand shown
Over roughly 16,000 sequences, “rpm ratio (pull-down/input)” has its median near 0.94; the highest 2% begin near 1.7. Many of the other results were omitted from the sample, so the highest values are more common in it than they were.
Readings of binding signal for the listed sequences
measured property: binding signal

INSERT INTO results (query_sequence, tested_system, measured_property, recorded_measurement) VALUES
  ('GATGATTGTTCTCCCAGCTGATGAATTCATCGGATCGAGTAAACAAATTTTCCTAATCTTTCTGTTCAAGCGCCATCTAC', 'MBP-FoxP1dN (Mus musculus, UniProt P58462 326-579)', 'binding signal', '0.838 RPM ratio (pull-down/input)'),
  ('GATGATTGTTCTCCCAGCTGATGAATTTATCTCCTCGAGTAAACAAATTTTCCTAATCTTTCTGTTCAAGCGCCATCTAC', 'MBP-FoxP1dN (Mus musculus, UniProt P58462 326-579)', 'binding signal', '1.08 RPM ratio (pull-down/input)'),
  ('GATGATTGTTCTCCCAGCTGATGAATTTGTTAGTTCGAGTAAACAAATTTTCCTAATCTTTCTGTTCAAGCGCCATCTAC', 'MBP-FoxP1dN (Mus musculus, UniProt P58462 326-579)', 'binding signal', '1.78 RPM ratio (pull-down/input)'),
  ('GATGATTGTTCTCCCAGCTGATGAATTGTCAACTTCGAGTAAACAAATTTTCCTAATCTTTCTGTTCAAGCGCCATCTAC', 'MBP-FoxP1dN (Mus musculus, UniProt P58462 326-579)', 'binding signal', '1.31 RPM ratio (pull-down/input)'),
  ('GATGATTGTTCTCCCAGCTGATGAATTTGTTTTATCGAGTAAACAAATTTTCCTAATCTTTCTGTTCAAGCGCCATCTAC', 'MBP-FoxP1dN (Mus musculus, UniProt P58462 326-579)', 'binding signal', '1.78 RPM ratio (pull-down/input)'),
  ('GATGATTGTTCTCCCAGCTGATGAATTTGTTATATCGAGTAAACAAATTTTCCTAATCTTTCTGTTCAAGCGCCATCTAC', 'MBP-FoxP1dN (Mus musculus, UniProt P58462 326-579)', 'binding signal', '1.5 RPM ratio (pull-down/input)'),
  ('GATGATTGTTCTCCCAGCTGATGAATTTTGGTTATCGAGTAAACAAATTTTCCTAATCTTTCTGTTCAAGCGCCATCTAC', 'MBP-FoxP1dN (Mus musculus, UniProt P58462 326-579)', 'binding signal', '1.17 RPM ratio (pull-down/input)'),
  ('GATGATTGTTCTCCCAGCTGATGAATTTGTTATCTCGAGTAAACAAATTTTCCTAATCTTTCTGTTCAAGCGCCATCTAC', 'MBP-FoxP1dN (Mus musculus, UniProt P58462 326-579)', 'binding signal', '1.76 RPM ratio (pull-down/input)'),
  ('GATGATTGTTCTCCCAGCTGATGAATTATGTTCGTCGAGTAAACAAATTTTCCTAATCTTTCTGTTCAAGCGCCATCTAC', 'MBP-FoxP1dN (Mus musculus, UniProt P58462 326-579)', 'binding signal', '1.06 RPM ratio (pull-down/input)'),
  ('GATGATTGTTCTCCCAGCTGATGAATTCTTTTTTTCGAGTAAACAAATTTTCCTAATCTTTCTGTTCAAGCGCCATCTAC', 'MBP-FoxP1dN (Mus musculus, UniProt P58462 326-579)', 'binding signal', '1.07 RPM ratio (pull-down/input)');

----------
# binding signal annotations
Molecular target: MBP-FoxP1dN (Mus musculus, UniProt P58462 326-579)
Sequence: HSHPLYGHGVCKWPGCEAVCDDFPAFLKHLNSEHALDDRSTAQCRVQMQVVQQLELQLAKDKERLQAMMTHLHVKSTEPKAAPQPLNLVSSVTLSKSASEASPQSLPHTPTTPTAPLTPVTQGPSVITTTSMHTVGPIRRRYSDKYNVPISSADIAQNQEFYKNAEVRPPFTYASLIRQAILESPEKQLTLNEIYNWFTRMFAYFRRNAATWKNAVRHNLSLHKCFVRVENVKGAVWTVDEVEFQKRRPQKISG
Assay: PD-seq (MBP pull-down with sequencing); 20 mM Tris-HCl pH 7.5, 100 mM NaCl, 1.5 mM MgCl2, 0.4 uM protein, 0.1 uM dsDNA library, 30 min, room temperature, amylose pull-down; high values mean tight binding
Details: protein: recombinant; tags: His6-MBP; chain copies: 2; dsDNA, one strand shown
The full ranking holds about 16,000 sequences; the median of “rpm ratio (pull-down/input)” is about 0.94, and the highest 2% start at about 1.7. What follows is part of a selection rich in the highest values, with near analogues and random picks from the rest.
measured property: binding signal

INSERT INTO results (query_sequence, measured_property, recorded_measurement) VALUES
  ('GATGATTGTTCTCCCAGCTGATGAATTCTCCCAATCGAGTAAACAAATTTTCCTAATCTTTCTGTTCAAGCGCCATCTAC', 'binding signal', '0.958 RPM ratio (pull-down/input)'),
  ('GATGATTGTTCTCCCAGCTGATGAATTTTGTTGCTCGAGTAAACAAATTTTCCTAATCTTTCTGTTCAAGCGCCATCTAC', 'binding signal', '1.79 RPM ratio (pull-down/input)'),
  ('GATGATTGTTCTCCCAGCTGATGAATTTTGCTCCTCGAGTAAACAAATTTTCCTAATCTTTCTGTTCAAGCGCCATCTAC', 'binding signal', '0.907 RPM ratio (pull-down/input)'),
  ('GATGATTGTTCTCCCAGCTGATGAATTATCTAAATCGAGTAAACAAATTTTCCTAATCTTTCTGTTCAAGCGCCATCTAC', 'binding signal', '1.18 RPM ratio (pull-down/input)'),
  ('GATGATTGTTCTCCCAGCTGATGAATTATTCTGATCGAGTAAACAAATTTTCCTAATCTTTCTGTTCAAGCGCCATCTAC', 'binding signal', '0.97 RPM ratio (pull-down/input)'),
  ('GATGATTGTTCTCCCAGCTGATGAATTCGTGTTTTCGAGTAAACAAATTTTCCTAATCTTTCTGTTCAAGCGCCATCTAC', 'binding signal', '2.29 RPM ratio (pull-down/input)');
